Tested on: pooled normal human plasma
Test Summary: Anticoagulant activity, APTT
Measurement Setup: 0.1 mg/mL in normal pooled human plasma
Assay Endpoint: APTT (s)
Lab book: enter the figure in s, no units written.

[[record]]
molecule = "CC(=O)OC1CC2C(CCC3CC(OS(=O)(=O)O)CCC32C)C2CCC(C(C)CCC(=O)NC3OC(COS(=O)(=O)O)C(OC4OC(COS(=O)(=O)O)C(OC5OC(COS(=O)(=O)O)C(OC6OC(COS(=O)(=O)O)C(OS(=O)(=O)O)C(OS(=O)(=O)O)C6OS(=O)(=O)O)C(OS(=O)(=O)O)C5OS(=O)(=O)O)C(OS(=O)(=O)O)C4OS(=O)(=O)O)C(OS(=O)(=O)O)C3OS(=O)(=O)O)C12C (centres unmarked)"
measured_on = "pooled normal human plasma"
assay_endpoint = "APTT"
meas_value = 41.0


Next:
Which APTT is reported for this molecule? CC(C)CCCC(C)C1CCC2C3CCC4CC(OCc5cn(C6OC(COS(=O)(=O)O)C(OC7OC(COS(=O)(=O)O)C(OS(=O)(=O)O)C(OS(=O)(=O)O)C7OS(=O)(=O)O)C(OS(=O)(=O)O)C6OS(=O)(=O)O)nn5)CCC4(C)C3CCC12C (centres unmarked)
39.6

The reported measurements were obtained from patent US20150065440A1.
